- Measurement target: PRMT5 (Homo sapiens, UniProt O14744)
- Construct: His-tag; made in house; host or cells: Sf9 insect cells (Bac-to-Bac baculovirus)
- Sequence (O14744 whole entry): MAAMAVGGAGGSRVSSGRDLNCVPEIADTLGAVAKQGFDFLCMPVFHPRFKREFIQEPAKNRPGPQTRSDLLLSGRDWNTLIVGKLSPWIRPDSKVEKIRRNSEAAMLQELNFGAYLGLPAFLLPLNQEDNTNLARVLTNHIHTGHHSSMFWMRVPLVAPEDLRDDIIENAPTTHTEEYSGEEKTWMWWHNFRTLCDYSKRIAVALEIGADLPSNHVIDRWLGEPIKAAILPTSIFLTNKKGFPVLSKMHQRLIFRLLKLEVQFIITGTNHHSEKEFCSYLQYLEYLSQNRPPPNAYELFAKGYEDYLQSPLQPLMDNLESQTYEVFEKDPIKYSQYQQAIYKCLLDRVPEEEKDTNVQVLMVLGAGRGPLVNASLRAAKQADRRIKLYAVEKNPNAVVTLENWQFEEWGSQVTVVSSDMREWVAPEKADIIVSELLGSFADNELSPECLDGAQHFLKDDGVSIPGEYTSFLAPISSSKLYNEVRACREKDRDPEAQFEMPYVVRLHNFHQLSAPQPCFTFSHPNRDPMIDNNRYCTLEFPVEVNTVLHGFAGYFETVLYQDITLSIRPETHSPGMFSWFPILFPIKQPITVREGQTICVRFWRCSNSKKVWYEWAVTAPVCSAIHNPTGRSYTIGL
- Sequence (Q9BQA1 whole entry partner): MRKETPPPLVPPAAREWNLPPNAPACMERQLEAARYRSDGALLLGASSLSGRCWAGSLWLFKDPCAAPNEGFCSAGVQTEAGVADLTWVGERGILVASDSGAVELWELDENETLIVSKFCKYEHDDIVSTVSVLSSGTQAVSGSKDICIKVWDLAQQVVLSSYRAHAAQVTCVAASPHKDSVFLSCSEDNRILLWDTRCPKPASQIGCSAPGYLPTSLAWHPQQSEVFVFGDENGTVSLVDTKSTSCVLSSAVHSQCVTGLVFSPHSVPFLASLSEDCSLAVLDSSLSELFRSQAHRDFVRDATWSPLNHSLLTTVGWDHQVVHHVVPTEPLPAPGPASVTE
- Procedure summary: scintillation proximity assay (SPA) of PRMT5 methyltransferase activity
- Format: biochemical
- Conditions used: 0.5 h; remaining activity of the enzyme; single point SPA test, inhibitor 10 μM; 0.5 μM H4(1–20)K20biotin, 0.5 μM 3H-SAM; read-out: Relative Activity of PRMT5 at 10 μM
Observed property: remaining activity at 10 µM (%)
Reply with just the number (in %).

Record excerpt, results attached:
CC(C)[C@H](N)C(=O)OCc1cn(C[C@H]2O[C@@H](n3cnc4c(N)ncnc43)[C@H](O)[C@@H]2O)nn1 [Compound 20] : 26
CC(C)(C)OC(=O)NCCS(=O)(=O)Cc1cn(C[C@H]2O[C@@H](n3cnc4c(N)ncnc43)[C@H](O)[C@@H]2O)nn1 [Compound 28] : 76
Nc1ncnc2c1ncn2[C@@H]1O[C@H](Cn2cc(CNC(=O)OCc3ccccc3)nn2)[C@@H](O)[C@H]1O [Compound 16] : 80
Nc1ncnc2c1ncn2[C@@H]1O[C@H](Cn2cc(-c3ccccc3)nn2)[C@@H](O)[C@H]1O [Compound 14] : 51
Nc1ncnc2c1ncn2C1OC(Cn2cc(CCC(N)c3ccccc3)nn2)C(O)C1O (stereo not shown) [Compound 10] : 71

molecule Nc1ncnc2c1ncn2[C@@H]1O[C@H](Cn2cc(C(=O)O)nn2)[C@@H](O)[C@H]1O [Compound 11] , remaining activity at 10 µM observed: 74

Recorded remaining activity at 10 µM (molecule Cc1cccc(NC(=O)CNCc2cn(C[C@H]3O[C@@H](n4cnc5c(N)ncnc54)[C@H](O)[C@@H]3O)nn2)c1 [Compound 21] ): 32
